Target: T1, cynomolgus galectin-10-His, YRT isoform (cynomolgus)
T1 construct: also called cynoGal10-YRT; not shown: His tag
T1 chain: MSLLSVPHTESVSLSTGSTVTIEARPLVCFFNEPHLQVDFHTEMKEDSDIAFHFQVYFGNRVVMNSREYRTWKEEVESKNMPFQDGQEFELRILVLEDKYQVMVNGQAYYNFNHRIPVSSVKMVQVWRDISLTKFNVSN
Experiment: ELISA, coated antigen 0.2 ug/mL
property name: Bmax (OD)
Give bare numbers, in OD.

response.value for 8H11 scFv-human Fc (Fc fusion, also called 008H11; not shown: CH2-CH3 constant domains of human IgG1 (pUPEX50 scFv-Fc fusion vector)) scFv: ELQLVESGGGLVQPGGSLRLSCAASGFTFSTNYMNWVRQAPGKGLEWVSGITSGGGRTYYADSVKGRFTISRDNAKNTLYLQMNSLKPEDTALYYCARTDHAWLDAWGQGTLVTVSSGGGGSGGGGSGGGGSQAGLTQPPSVSGTLGKTVTISCAGTSSDVGYGNYVSWYQQLPGTAPKLLIYAVSTRASGIPDRFSGSKSGNTASLTISGLLSEDEADYYCASYRSSNNYVFGGGTKLTVL (field: Bmax) = 3.1
